# Test system: rodent lifetime carcinogenesis bioassay, tumor incidence TD50
# protocol details: carcinogenic potency in animals, long-term in vivo studies, CPDB compilation (AID 1745844)
# applied conditions: rat; strain Fischer 344; females; in feed; site: any site (literature study); lesion: several types; types named in the paper; dosed 110 weeks; study length 111 weeks
assay metric: TD50
Answer with the value and then the unit.

Task: Find the measured TD50 of Nc1ncc([N+](=O)[O-])s1 and report it.
Result: 326 mg/kg/day

----------
# System: rodent lifetime carcinogenesis bioassay, tumor incidence TD50
# protocol details: carcinogenic potency in animals, long-term in vivo studies, CPDB compilation (AID 1745844)
# applied conditions: mouse; strain B6C3F1; males; inhaled; site: liver; lesion: hepatocellular adenoma + hepatocellular carcinoma + neoplastic nodule; dosed 102 weeks; study length 104 weeks
The following molecules are shown together with reported TD50 values.
Dear colleague, please return just the value in mg/kg/day, with no unit written.

For orientation, consider the following solved cases.
molecule	readout units	result
CCC1CO1 (stereo not drawn)	mg/kg/day	8600
ClCCl	mg/kg/day	1800

Task: Give TD50 for C1CO1
Result: 273

----------
# System: rodent lifetime carcinogenesis bioassay, tumor incidence TD50
# protocol details: carcinogenic potency in animals, long-term in vivo studies, CPDB compilation (AID 1745844)
# applied conditions: rat; strain Fischer 344; females; by gavage; site: liver; lesion: several types; types named in the paper; dosed 121 weeks; study length 121 weeks
assay metric: TD50

Task: Please look at this compound and report its TD50: Cc1ccc(S(=O)(=O)OCCN(C)N=O)cc1
Result: 3.47 mg/kg/day

----------
# Tested on: rodent lifetime carcinogenesis bioassay, tumor incidence TD50
# protocol details: carcinogenic potency in animals, long-term in vivo studies, CPDB compilation (AID 1745844)
# applied conditions: mouse; strain CDF1; females; in feed; site: lung; lesion: one or several types; types not named; dosed 78 weeks; study length 104 weeks
assay metric: TD50 (mg/kg/day)
Please reply with the bare figure in mg/kg/day and do not write the unit itself.

Task: Complete the entry with TD50 for NC(=O)C(=Cc1ccc([N+](=O)[O-])o1)c1ccco1
Result: 16400

----------
# Tested on: rodent lifetime carcinogenesis bioassay, tumor incidence TD50
# protocol details: carcinogenic potency in animals, long-term in vivo studies, CPDB compilation (AID 1745844)
# applied conditions: mouse; strain B6C3F1; females; by gavage; site: Harderian gland; lesion: papillary adenoma; dosed 102 weeks; study length 103 weeks
assay metric: TD50 (mg/kg/day)
Kindly provide the numeric value in mg/kg/day only, without the unit symbol.

Task: Read off the recorded TD50 for CC(C)=CCl
Result: 146

----------
# Tested on: rodent lifetime carcinogenesis bioassay, tumor incidence TD50
# protocol details: carcinogenic potency in animals, long-term in vivo studies, CPDB compilation (AID 1745844)
# applied conditions: rat; strain Fischer 344; females; in feed; site: adrenal gland; lesion: cortical adenoma; dosed 103 weeks; study length 105 weeks
Activity calls are given as the source filed them. How the calls were made is not given here.
assay metric: TD50

compound	TD50
CO[C@H]1[C@@H](O)[C@@H](CO)OC(OC2C3CO[C@H]2[C@H](O)C(C)O3)[C@@H]1O (some centres not stated)	25800 mg/kg/day (inactive)

Now look at this entry.
Task: # return recorded TD50 for input CCOC(=O)/C(Cl)=N/Nc1ccccc1
Result: 11900 mg/kg/day (inactive)
